Molecular target: Wee1 (h) (Homo sapiens, UniProt P30291)
Sequence (P30291 whole entry): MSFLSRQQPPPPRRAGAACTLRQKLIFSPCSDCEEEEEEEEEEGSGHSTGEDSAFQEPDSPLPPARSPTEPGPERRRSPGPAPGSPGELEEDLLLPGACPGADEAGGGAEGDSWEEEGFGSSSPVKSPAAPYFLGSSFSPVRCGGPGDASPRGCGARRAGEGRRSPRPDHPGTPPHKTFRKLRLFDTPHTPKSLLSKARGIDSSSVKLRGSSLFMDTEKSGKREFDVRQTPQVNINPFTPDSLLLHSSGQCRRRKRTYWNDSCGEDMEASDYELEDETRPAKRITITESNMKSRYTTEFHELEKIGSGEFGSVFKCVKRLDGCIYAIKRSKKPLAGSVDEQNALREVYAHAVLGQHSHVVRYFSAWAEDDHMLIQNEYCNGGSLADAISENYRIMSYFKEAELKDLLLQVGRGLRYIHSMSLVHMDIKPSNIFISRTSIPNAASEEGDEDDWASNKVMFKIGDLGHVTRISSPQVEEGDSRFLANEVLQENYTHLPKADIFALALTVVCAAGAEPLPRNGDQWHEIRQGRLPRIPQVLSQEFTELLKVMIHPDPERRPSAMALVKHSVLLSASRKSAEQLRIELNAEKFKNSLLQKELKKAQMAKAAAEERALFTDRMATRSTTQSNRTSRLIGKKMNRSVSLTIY
Experiment: Wee1 kinase (h) detection method, [γ-33P]-ATP filter assay
Assay type: biochemical
Conditions: C 0.1 μm compound
MEASURE_NAME: Inh. (%) of Wee1 kinase enzyme activity

[[record]]
compound_string = "CN1CCN(c2ccc(Nc3ncc4c(n3)N3CCN=C3N(c3c(F)cccc3Cl)C4=O)cc2F)CC1"
experimental_system = "Wee1 (h) (Homo sapiens, UniProt P30291)"
measure_name = "Inh. (%) of Wee1 kinase enzyme activity"
u = "%"
value_reported = 75

[[record]]
compound_string = "CN(C)CCCOc1ccc(Nc2ncc3c(n2)N2CCN=C2N(c2c(F)cccc2Cl)C3=O)cc1"
experimental_system = "Wee1 (h) (Homo sapiens, UniProt P30291)"
measure_name = "Inh. (%) of Wee1 kinase enzyme activity"
u = "%"
value_reported = 83

[[record]]
compound_string = "C[C@@H]1CN(c2ccc(Nc3ncc4c(n3)N3CCN=C3N(c3c(Cl)cccc3Cl)C4=O)cc2)C[C@H](C)N1C"
experimental_system = "Wee1 (h) (Homo sapiens, UniProt P30291)"
measure_name = "Inh. (%) of Wee1 kinase enzyme activity"
u = "%"
value_reported = 88

[[record]]
compound_string = "Cc1cc(Nc2ncc3c(n2)N2CCN=C2N(c2c(Cl)cccc2Cl)C3=O)cc(Cl)c1N1CCN(C)CC1"
experimental_system = "Wee1 (h) (Homo sapiens, UniProt P30291)"
measure_name = "Inh. (%) of Wee1 kinase enzyme activity"
u = "%"
value_reported = 98

[[record]]
compound_string = "Cc1cc(Nc2ncc3c(n2)N2CCN=C2N(c2c(C)cccc2Cl)C3=O)cc(C)c1N1CCN(C)CC1"
experimental_system = "Wee1 (h) (Homo sapiens, UniProt P30291)"
measure_name = "Inh. (%) of Wee1 kinase enzyme activity"
u = "%"
value_reported = 83

[[record]]
compound_string = "Cc1cc(Nc2ncc3c(n2)N2CCN=C2N(c2c(F)cccc2F)C3=O)ccc1N1CCN(C)CC1"
experimental_system = "Wee1 (h) (Homo sapiens, UniProt P30291)"
measure_name = "Inh. (%) of Wee1 kinase enzyme activity"
u = "%"
value_reported = 71

[[record]]
compound_string = "Cc1cccc(C)c1N1C(=O)c2cnc(Nc3ccc4c(c3)CN(C)CC4(C)C)nc2N2CCN=C21"
experimental_system = "Wee1 (h) (Homo sapiens, UniProt P30291)"
measure_name = "Inh. (%) of Wee1 kinase enzyme activity"
u = "%"
value_reported = 59

[[record]]
compound_string = "C[C@@H]1CN(c2ccc(Nc3ncc4c(n3)N3CCN=C3N(c3c(Cl)cccc3Cl)C4=O)cc2Cl)C[C@H](C)N1C"
experimental_system = "Wee1 (h) (Homo sapiens, UniProt P30291)"
measure_name = "Inh. (%) of Wee1 kinase enzyme activity"
u = "%"
value_reported = 75

[[record]]
compound_string = "CN(C)C1CCN(c2ccc(Nc3ncc4c(n3)N3CCN=C3N(c3c(Cl)cccc3Cl)C4=O)cc2Cl)CC1"
experimental_system = "Wee1 (h) (Homo sapiens, UniProt P30291)"
measure_name = "Inh. (%) of Wee1 kinase enzyme activity"
u = "%"
value_reported = 81

[[record]]
compound_string = "Cc1cccc(Cl)c1N1C(=O)c2cnc(Nc3ccc(N4CCN(C)CC4)c(Cl)c3)nc2N2CCN=C21"
experimental_system = "Wee1 (h) (Homo sapiens, UniProt P30291)"
measure_name = "Inh. (%) of Wee1 kinase enzyme activity"
u = "%"
value_reported = 59

[[record]]
compound_string = "CN1CCN(c2ccc(Nc3ncc4c(n3)N3CCN=C3N(c3c(Cl)cccc3Cl)C4=O)cc2)CC1"
experimental_system = "Wee1 (h) (Homo sapiens, UniProt P30291)"
measure_name = "Inh. (%) of Wee1 kinase enzyme activity"
u = "%"
value_reported = 93

[[record]]
compound_string = "Cc1cc(Nc2ncc3c(n2)N2CCN=C2N(c2c(Cl)cccc2Br)C3=O)cc(Cl)c1N1CCN(C)CC1"
experimental_system = "Wee1 (h) (Homo sapiens, UniProt P30291)"
measure_name = "Inh. (%) of Wee1 kinase enzyme activity"
u = "%"
value_reported = 86

[[record]]
compound_string = "Cc1cc(Nc2ncc3c(n2)N2CCN=C2N(c2c(Cl)cccc2Cl)C3=O)ccc1N1C[C@@H](C)N(C(C)C)[C@@H](C)C1"
experimental_system = "Wee1 (h) (Homo sapiens, UniProt P30291)"
measure_name = "Inh. (%) of Wee1 kinase enzyme activity"
u = "%"
value_reported = 77


----------
Tested on: NCI-H1299 cells
Test: MTT based cell viability assay on NCI-H1299 cells
Conditions: Homo sapiens, NCI-H1299, NCI-H1299 cells, read-out: IC50, growth inhibition of NCI-H1299 cells
pIC50: −log10 of the molar value.
MEASURE_NAME: pIC50

Recorded pIC50, per entry:
[[record]]
compound_string = "Cc1cc(Nc2ncc3c(n2)N2CCN=C2N(c2c(F)cccc2Cl)C3=O)cc(C(F)(F)F)c1N1CCN(C)CC1"
value_reported = 6.51

[[record]]
compound_string = "C=CCn1c(=O)c2cnc(Nc3ccc(N4CCN(C)CC4)cc3)nc2n1-c1cccc(C(C)(C)O)n1"
value_reported = 6.54

[[record]]
compound_string = "Cc1cc(Nc2ncc3c(n2)N2CCN=C2N(c2c(F)cccc2Cl)C3=O)ccc1N1C[C@@H](C)N(C)[C@@H](C)C1"
value_reported = 6.78

[[record]]
compound_string = "Cc1cc(Nc2ncc3c(n2)N2CCN=C2N(c2c(C)cccc2F)C3=O)cc(C)c1N1CCN(C)CC1"
value_reported = 6.56

[[record]]
compound_string = "Cc1cc(Nc2ncc3c(n2)N2CCN=C2N(c2c(F)cccc2Cl)C3=O)ccc1N1CCN(C)CC1"
value_reported = 6.64


P. Cc1cc(Nc2ncc3c(n2)N2CCN=C2N(c2c(F)cccc2Cl)C3=O)cc(C)c1N1CCN(C)CC1
Q. CN(C)C1CCN(c2ccc(Nc3ncc4c(n3)N3CCN=C3N(c3c(F)cccc3Cl)C4=O)cc2Cl)CC1
When their pIC50 values are compared, which is larger, P or Q ? Return value: the label identifying the chosen record.
Q

P. COc1cc(Nc2ncc3c(n2)N2CCN=C2N(c2c(F)cccc2Cl)C3=O)cc(Cl)c1N1CCN(C)CC1
Q. Cc1cc(Nc2ncc3c(n2)N2CCN=C2N(c2c(Cl)cccc2Cl)C3=O)ccc1N1CCN(C(C)C)CC1
Which value of pIC50 is smaller, the one for P or the one for Q ? Kindly give the label for the entry you pick.
Q

----------
Target: Wee1 (h) (Homo sapiens)
Assay: Wee1 kinase (h) detection method, [γ-33P]-ATP filter assay
Assay type: biochemical
Settings: C 10 μm compound
Method: Determination of the inhibitory effect of 6-(2-chlorophenyl)-2-((4-(4-methylpiperazin-1-yl)phenyl)amino)-8,9-dihydroimidazo[1,2-a]pyrimido[5,4-e]pyrimidin-5(6H)-one and Analogs on the Enzyme Activity of Wee1 Kinase by Using the Wee1 Kinase (h) Detection Method Then the stock solution of all compounds under test with 50× concentration in 100% DMSO was added to make the final concentration of 10/1/0.1/0.01 μM, and then mixed the mixture well. […]
MEASURE_NAME: Inh. (%) of Wee1 kinase enzyme activity

Here are 2 compounds together with their reported answers.
[[record]]
compound = "CN1CCN(c2ccc(Nc3ncc4c(n3)N3CCN=C3N(c3ccccc3Cl)C4=O)cc2)CC1 [Example 1]"
measure_name = "Inh. (%) of Wee1 kinase enzyme activity"
value_reported = 96

[[record]]
compound = "C=CCn1c(=O)c2cnc(Nc3ccc(N4CCN(C)CC4)cc3)nc2n1-c1cccc(C(C)(C)O)n1 [AZD1775]"
measure_name = "Inh. (%) of Wee1 kinase enzyme activity"
value_reported = 97


1. CN1CCN(c2ccc(Nc3ncc4c(n3)N3CCN=C3N(c3c(F)cccc3Cl)C4=O)cc2)CC1 [Example 2]
2. CN1CCN(c2ccc(Nc3cc4c(cn3)C(=O)N(c3ccccc3Cl)C3=NCCN34)cc2)CC1 [Example 3]
// max by Inh. (%) of Wee1 kinase enzyme activity over [ 1 , 2 ] Returns: label corresponding to the selected item.
1
(1: 95%, 2: 56%)

----------
Target: Wee1 (h) (Homo sapiens)
Experiment: Wee1 kinase (h) detection method, [γ-33P]-ATP filter assay
Assay type: biochemical
Conditions: C 1 μm compound
MEASURE_NAME: Inh. (%) of Wee1 kinase enzyme activity

[[record]]
compound = "CN1CCN(c2ccc(Nc3ncc4c(n3)N3CCN=C3N(C3CCCCC3)C4=O)cc2)CC1 [Example 21]"
value_reported = 9

[[record]]
compound = "Cc1cc(Nc2ncc3c(n2)N2CCN=C2N(c2c(F)cccc2Cl)C3=O)ccc1N1CCN(C)CC1 [Example 50]"
value_reported = 100

[[record]]
compound = "Cc1cc(Nc2ncc3c(n2)N2CCN=C2N(c2c(F)cccc2Cl)C3=O)cc(C(F)(F)F)c1N1CCN(C)CC1 [Example 128]"
value_reported = 89


P. Cc1cc(N2C[C@@H](C)N(C)[C@@H](C)C2)ccc1Nc1ncc2c(n1)N1CCN=C1N(c1c(F)cccc1Cl)C2=O [Example 43]
Q. CN1CCN(c2ccc(Nc3ncc4c(n3)N3CCN=C3N(c3cccc(Cl)c3)C4=O)cc2)CC1 [Example 86]
# query: argmin of Inh. (%) of Wee1 kinase enzyme activity over P and Q State the label of the item chosen.
Q

a. Cc1cc(Nc2ncc3c(n2)N2CCN=C2N(c2c(Cl)cccc2Cl)C3=O)ccc1N1C[C@@H](C)N(C)[C@@H](C)C1 [Example 77]
b. CN1CCN(c2ccc(Nc3ncc4c(n3)N3CCN=C3N(c3ccccc3)C4=O)cc2)CC1 [Example 96]
Thinking about recorded Inh. (%) of Wee1 kinase enzyme activity values, which is higher, a or b ? Returns: label corresponding to the selected item.
a
